System: Mycobacterium tuberculosis Erdman (autoluminescent)
Experiment: GRinf, maximum normalised growth rate inhibition (unitless (-1 to 1)); higher = less effect (negative = killing)
Details: in vitro model: cholesterol-high 0.2 mM; time point: constant (~7 days, model-specific)
Some compounds, each annotated with its measured GRinf.
readout.label: GRinf

>>> recorded_result("COc1c(N2C[C@@H]3CCCN[C@@H]3C2)c(F)cc2c(=O)c(C(=O)O)cn(C3CC3)c12 [moxifloxacin] + CO[C@H]1/C=C/O[C@@]2(C)Oc3c(C)c(O)c4c(O)c(c(/C=N/N5CCN(C6CCCC6)CC5)c(O)c4c3C2=O)NC(=O)/C(C)=C\\C=C\\[C@H](C)[C@H](O)[C@@H](C)[C@@H](O)[C@@H](C)[C@H](OC(C)=O)[C@@H]1C")
-0.242
>>> recorded_result("CC(C)/N=c1\\cc2n(-c3ccc(Cl)cc3)c3ccccc3nc-2cc1Nc1ccc(Cl)cc1 [clofazimine] + CC(=O)NC[C@H]1CN(c2ccc(N3CCOCC3)c(F)c2)C(=O)O1 [linezolid]")
-0.536
>>> recorded_result("CC(C)/N=c1\\cc2n(-c3ccc(Cl)cc3)c3ccccc3nc-2cc1Nc1ccc(Cl)cc1 [clofazimine] + COc1c(N2C[C@@H]3CCCN[C@@H]3C2)c(F)cc2c(=O)c(C(=O)O)cn(C3CC3)c12 [moxifloxacin]")
-0.922
>>> recorded_result("CC[C@@H](CO)NCCN[C@@H](CC)CO [ethambutol] + CC(=O)NC[C@H]1CN(c2ccc(N3CCOCC3)c(F)c2)C(=O)O1 [linezolid]")
-0.702
>>> recorded_result("NNC(=O)c1ccncc1 [isoniazid] + CO[C@H]1/C=C/O[C@@]2(C)Oc3c(C)c(O)c4c(O)c(c(/C=N/N5CCN(C6CCCC6)CC5)c(O)c4c3C2=O)NC(=O)/C(C)=C\\C=C\\[C@H](C)[C@H](O)[C@@H](C)[C@@H](O)[C@@H](C)[C@H](OC(C)=O)[C@@H]1C [rifapentine]")
-0.348
>>> recorded_result("NNC(=O)c1ccncc1 [isoniazid] + NC(=O)c1cnccn1 [pyrazinamide]")
-0.322
